assay: modulators of glucocorticoid suppression of NF-kB, cell-based, luciferase, IL-1B stimulus, dexamethasone (AID 624486); conditions: NF-kB luciferase reporter, IL-1B + dexamethasone, luminescence; measured here: IL-1B alone, no Dex
Entries annotated with measured z-score
ASSAY ENDPOINT: z-score

>  <COMPOUND STRING>
N#CCn1c(=O)c(Oc2ccc(F)cc2F)cc2cnc(NC3CCOCC3)nc21

>  <ASSAY ENDPOINT>
z-score

>  <RECORDED VALUE>
-0.11

$$$$
>  <COMPOUND STRING>
COc1ccc(C2=C(N3CCc4ccccc43)C(=O)NC2=O)cc1

>  <ASSAY ENDPOINT>
z-score

>  <RECORDED VALUE>
-0.36

$$$$
>  <COMPOUND STRING>
CN(C)c1cc2c(Nc3ccc4c(cnn4Cc4ccccc4)c3)ncnc2cn1

>  <ASSAY ENDPOINT>
z-score

>  <RECORDED VALUE>
-1.64

$$$$
>  <COMPOUND STRING>
Cc1ccc(C(=O)NC(C)C)cc1-c1ccc(C(=O)NCC2CC2)cc1

>  <ASSAY ENDPOINT>
z-score

>  <RECORDED VALUE>
1.18

$$$$
>  <COMPOUND STRING>
CC(C)(O)CCc1cccc(C(=O)c2cnn(-c3ccc(F)cc3)c2N)c1

>  <ASSAY ENDPOINT>
z-score

>  <RECORDED VALUE>
0.16

$$$$
>  <COMPOUND STRING>
c1ccc(-c2nc3n(c2-c2ccc4c(c2)OCO4)CCC3)nc1

>  <ASSAY ENDPOINT>
z-score

>  <RECORDED VALUE>
0.295

$$$$
